Test system: VEGF-121 (Homo sapiens), P15692-9
Sequence: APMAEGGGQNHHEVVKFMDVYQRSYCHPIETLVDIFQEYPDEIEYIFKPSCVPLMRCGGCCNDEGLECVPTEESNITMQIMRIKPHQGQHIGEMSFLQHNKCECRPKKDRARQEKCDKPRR
Experiment: filter
Conditions: P=Nap-dU; C3 spacer at 46
observation.type: pKd
On this scale, pKd is minus log10 of a concentration expressed in M (mol/L).

// query Give the measured pKd of CCCTCCATCAGCCGTTCAAGTGCTTGTAGGATTTAAATGGAATTGAGGA [4867-15_69] .
// result 9.11

* * *

biological target: PDGF-BB (platelet-derived growth factor BB) (Homo sapiens); test: filter; conditions: all Z are BndU, rest DNA; SB18T, 37 C
observation.type: pKd
On this scale, pKd is minus log10 of a concentration expressed in M (mol/L).

// query Give the measured pKd of CTTACGACTACGTTACACGCGTTTATAGCGTCAACCCGA [4149-8_26] .
// result 10.10

// query Give the measured pKd of CTTACGACTACGTTACACGCGTTTATAGCG [4149-8_30] .
// result 10.15

// query Give the measured pKd of CTTACGACTACGTTACACGCGTTTATAGCGT [4149-8_29] .
// result 10.15

* * *

biological target: PDGF-BB (platelet-derived growth factor BB) (Homo sapiens) (UniProt P01127); assay: filter; conditions: NapdU at P
Sequence (P01127 82-190): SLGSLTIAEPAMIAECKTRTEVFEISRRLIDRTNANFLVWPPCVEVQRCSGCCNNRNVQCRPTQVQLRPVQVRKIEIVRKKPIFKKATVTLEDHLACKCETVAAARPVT
Give Kd for every item shown.
// units = nM; emit number, no label

// query Give the measured Kd of CGACAGCATGTATGCACATCTAGAGGCTACCCAGT [5169-4_17] .
// result 0.02

// query Give the measured Kd of CGACAGCATGTATGCACATCTAGA [5169-4_23] .
// result 0.02

// query Give the measured Kd of CGACAGCATGTATGCACATCTA [5169-4_25] .
// result 0.02

* * *

Test system: VEGF-121 (Homo sapiens), P15692-9
Sequence: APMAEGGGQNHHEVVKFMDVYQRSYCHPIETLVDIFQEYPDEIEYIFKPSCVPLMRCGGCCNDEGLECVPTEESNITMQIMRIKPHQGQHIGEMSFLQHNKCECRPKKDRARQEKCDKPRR
Experiment: filter
Settings: P=Nap-dU
observation.type: Kd (nM)
// units = nM; emit number, no label

// query Give the measured Kd of AATCAGCCGTTCAAGTGCTTGTAGGATTTAAATGGAAT [4867-31_27] .
// result 0.59

// query Give the measured Kd of CCGTTCAAGTGCTTTTAGGATTTAAATGGA [4867-31_150] .
// result 0.24

// query Give the measured Kd of ATCAGCCGTTCAAGTGCTTGTAGGATTTAAATGGA [4867-31_40] .
// result 0.7

// query Give the measured Kd of CAGCCGTTCAAGTGCTTGTAGGATTTAAATGGAA [4867-31_36] .
// result 0.39

// query Give the measured Kd of CCGTTTAAGTGCTTGTAGGATTTAAATGGA [4867-31_147] .
// result 3.28

// query Give the measured Kd of AGCCGTTCAAGTGCTTGTAGGATTTAAATGGAAT [4867-31_31] .
// result 1

// query Give the measured Kd of CAATCAGCCGTTCAAGTGCTTGTAGGATTTAAATGGA [4867-31_38] .
// result 0.81

// query Give the measured Kd of CAATCAGCCGTTCAAGTGCTTGTAGGATTTAAATGGAAT [4867-31_26] .
// result 0.49

// query Give the measured Kd of CAATCAGCCGTTCAAGTGCTTGTAGGATTTAAATGGAA [4867-31_32] .
// result 0.51
